Molecular target: T1, human IL-18Rβ ECD Fc fusion (118-AP-100, R&D Systems) (human, UniProt O95256 20-356)
T1 construct: Bought protein; also called hIL-18Rβ; recombinant human IL-18Rb; not shown: Fc tag of the bought fusion protein, not described
T1 sequence: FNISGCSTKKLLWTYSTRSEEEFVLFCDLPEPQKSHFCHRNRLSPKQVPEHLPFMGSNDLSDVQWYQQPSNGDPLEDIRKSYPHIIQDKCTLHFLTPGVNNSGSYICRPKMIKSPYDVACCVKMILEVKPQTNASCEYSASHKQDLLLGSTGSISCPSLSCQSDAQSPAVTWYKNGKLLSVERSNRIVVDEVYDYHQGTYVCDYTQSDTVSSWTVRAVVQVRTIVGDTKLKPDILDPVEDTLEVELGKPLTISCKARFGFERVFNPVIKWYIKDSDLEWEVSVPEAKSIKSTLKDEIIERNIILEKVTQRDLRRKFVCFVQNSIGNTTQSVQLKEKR
Test: ELISA on recombinant human IL-18Rβ, normalised OD 450 nm, Fab with PBS or with saturating IgG 3131 [middle plot]
QUANTITY NAME: binding result

>>> result("3131 AM2-28 (Fab, V domains shown, Fab) VH: EVQLVESGGGLVQPGGSLRLSCAASGFNLYYSSMHWVRQAPGKGLEWVASIYSSYGYTYYADSVKGRFTISADTSKNTAYLQMNSLRAEDTAVYYCARSSFSHGYGWYGLDYWGQGTLVTVSS VL: DIQMTQSPSSLSASVGDRVTITCRASQSVSSAVAWYQQKPGKAPKLLIYSRSSDSSGVPSRFSGSRSGTDFTLTISSLQPEDFATYYCQQYGYHYAGLITFGQGTKVEIK")
"binds"
>>> result("3131 AM2-25 (Fab, V domains shown, Fab) VH: EVQLVESGGGLVQPGGSLRLSCAASGFNLYYSSMHWVRQAPGKGLEWVASIYSSYGYTYYADSVKGRFTISADTSKNTAYLQMNSLRAEDTAVYYCARSSFSHGYGWYGLDYWGQGTLVTVSS VL: DIQMTQSPSSLSASVGDRVTITCRASQSVSSAVAWYQQKPGKAPKLLIYSASSRDSGVPSRFSGSRSGTDFTLTISSLQPEDFATYYCQQYGYHYAGLITFGQGTKVEIK")
"binds"
>>> result("3131 AM2-18 (Fab, V domains shown, Fab) VH: EVQLVESGGGLVQPGGSLRLSCAASGFNLYYSSMHWVRQAPGKGLEWVASIYSSGGSTSYADSVKGRFTISADTSKNTAYLQMNSLRAEDTAVYYCARSSFSHGYGWYGLDYWGQGTLVTVSS VL: DIQMTQSPSSLSASVGDRVTITCRASQSVSSAVAWYQQKPGKAPKLLIYSASSLYSGVPSRFSGSRSGTDFTLTISSLQPEDFATYYCQQYGYHYAGLITFGQGTKVEIK")
"binds"
